// provenance: ChEMBL document CHEMBL1129767

assay: Biological half life period of compound was measured against snake venom phosphodiesterase (SVPDE); type: ADME; settings: serpentes
Measured parameter: half-life (min)

Nc1ncnc2c1ncn2C1O[C@H](COP(=O)(O)O[C@@H]2[C@H](O)[C@@H](CO)O[C@H]2n2cnc3c(N)ncnc32)[C@@H](O)[C@H]1O (some centres undefined); 3.6
Nc1ncnc2c1ncn2C1O[C@H](COP(=O)(O)O[C@H]2[C@@H](O)[C@H](n3cnc4c(N)ncnc43)O[C@@H]2CO)[C@@H](O)[C@H]1O (some centres undefined); 3.6
Nc1ncnc2c1ncn2C1OC(COP(=O)(O)O[C@@H]2C(CO)O[C@H](n3cnc4c(N)ncnc43)[C@@H]2O)[C@@H](O)[C@H]1O (single isomer, unassigned); 31.8
Nc1ncnc2c1ncn2C1OC(COP(=O)(O)O[C@@H]2[C@H](O)[C@@H](CO)O[C@@H]2n2cnc3c(N)ncnc32)[C@@H](O)[C@H]1O (single isomer, unassigned); 18
